# experimental-system: human PTGES (Homo sapiens (Human), UniProt O14684)
# Sequence (O14684 whole entry): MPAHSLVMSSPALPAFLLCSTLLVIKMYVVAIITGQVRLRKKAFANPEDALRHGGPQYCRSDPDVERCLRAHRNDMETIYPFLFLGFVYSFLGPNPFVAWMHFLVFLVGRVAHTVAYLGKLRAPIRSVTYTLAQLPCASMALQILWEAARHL
# protocol-notes: Human PTGES biochemical enzyme inhibition assay (conversion of PGH2 to PGE2, TR-FRET)
# assay-setup: Enzymatic conversion of PGH2 to PGE2; read-out: Human PTGES IC50
Reported IC50 by item:
I only need the number, in nM, no unit after it.

Previously resolved entries follow.
QUERY: Notebook entry, human PTGES (Homo sapiens (Human), UniProt O14684) assay: IC50 of Cc1c(CCC(=O)O)cc(F)cc1NC(=O)C(c1ccc(-c2cncc(Cl)c2)cc1)C1CCCC1 (racemic) = ?
RESULT: 1190

QUERY: Which IC50 is reported with human PTGES (Homo sapiens (Human), UniProt O14684) for this entry: `Cc1ncc(-c2ccc([C@H](C(=O)Nc3ccc(F)c(CCC(=O)O)c3C)C3CCCC3)cc2)cc1Cl` ?
RESULT: 23.7

QUERY: Param readout = IC50; param system = human PTGES (Homo sapiens (Human), UniProt O14684); param query = CCC(CC(=O)O)c1cccc(NC(=O)C(c2ccc(-c3cncc(F)c3)cc2)C2CCCC2)c1C (single isomer, unassigned; stereoisomer 4) ; response: value
RESULT: 156

QUERY: Please provide the recorded IC50 for Cc1cc(C(C(=O)Nc2cccc(CCC(=O)O)c2C)C2CCCC2)c(F)cc1-c1cncc(C(F)(F)F)c1 (racemic) , tested on human PTGES (Homo sapiens (Human), UniProt O14684).
RESULT: 1000

Moving on to the next molecule.
QUERY: Provide the documented IC50 with human PTGES (Homo sapiens (Human), UniProt O14684) as the system for Cc1cc(C(C(=O)Nc2cccc(CCC(=O)O)c2C)C2CCCC2)c(F)cc1-c1cnc(C)c(Cl)c1 (racemic)
RESULT: 741

Source: patent US10172814B2
